- run description: Oral bioavailability in Sprague-Dawley rat at 5 mg/kg
- Type: ADME, organism-based
- measurement context: in vivo
value type: bioavailability (%)
One number for each entry, in %.

For the compound Cn1c(C#N)ccc1-c1cc(F)c2c(c1)C(C)(C)C(=O)N2 , give its reported bioavailability.
31

###

- run description: Cmax in cynomolgus monkey at 5 mg/kg, po
- Type: ADME, organism-based, Macaca fascicularis
- Set-up: dose 5 mg/kg, route oral
- measurement context: in vivo
value type: Cmax (ng/mL)
Give bare numbers, in ng/mL.

Fill in reported Cmax for this entry: Cn1c(C#N)ccc1-c1cc(F)c2c(c1)C(C)(C)C(=O)N2
179

###

- target: UniProt P04150
- Sequence (P04150 whole entry, the tested form may be a part): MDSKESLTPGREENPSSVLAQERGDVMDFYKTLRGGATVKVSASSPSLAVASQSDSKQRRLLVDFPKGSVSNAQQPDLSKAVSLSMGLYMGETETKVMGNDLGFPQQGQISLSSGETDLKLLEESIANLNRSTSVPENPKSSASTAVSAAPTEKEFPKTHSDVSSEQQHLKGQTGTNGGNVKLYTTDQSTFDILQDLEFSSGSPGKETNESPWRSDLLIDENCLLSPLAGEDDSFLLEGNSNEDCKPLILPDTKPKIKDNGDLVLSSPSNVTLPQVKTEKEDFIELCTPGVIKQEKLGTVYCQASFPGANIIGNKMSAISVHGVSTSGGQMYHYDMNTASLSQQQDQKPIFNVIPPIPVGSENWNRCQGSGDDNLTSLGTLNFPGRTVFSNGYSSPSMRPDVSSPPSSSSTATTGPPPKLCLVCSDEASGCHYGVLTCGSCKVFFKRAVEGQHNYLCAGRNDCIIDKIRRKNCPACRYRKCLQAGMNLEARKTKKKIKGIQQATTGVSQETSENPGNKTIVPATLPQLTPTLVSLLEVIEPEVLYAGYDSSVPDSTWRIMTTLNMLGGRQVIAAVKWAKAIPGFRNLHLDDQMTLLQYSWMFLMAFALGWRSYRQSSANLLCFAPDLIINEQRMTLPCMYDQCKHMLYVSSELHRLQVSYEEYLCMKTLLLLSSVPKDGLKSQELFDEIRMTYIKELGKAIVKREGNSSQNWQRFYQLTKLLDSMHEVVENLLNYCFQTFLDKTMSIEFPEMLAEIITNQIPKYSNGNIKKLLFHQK
- run description: Antagonist activity at human GR ligand binding domain expressed in african green monkey COS7 cells in presence of Dexamethasone by Gal4 hybrid assay
value type: IC50 (nM)
Answers are plain numbers, in nM.

Return value of IC50 for input COC[C@]1(OC)CC[C@H]2[C@@H]3CCC4=CC(=O)CCC4=C3[C@@H](c3ccc(/C=N/O)cc3)C[C@@]21C , no commentary.
85

###

- target: Estrogen receptor (Homo sapiens)
- Sequence (P03372 whole entry): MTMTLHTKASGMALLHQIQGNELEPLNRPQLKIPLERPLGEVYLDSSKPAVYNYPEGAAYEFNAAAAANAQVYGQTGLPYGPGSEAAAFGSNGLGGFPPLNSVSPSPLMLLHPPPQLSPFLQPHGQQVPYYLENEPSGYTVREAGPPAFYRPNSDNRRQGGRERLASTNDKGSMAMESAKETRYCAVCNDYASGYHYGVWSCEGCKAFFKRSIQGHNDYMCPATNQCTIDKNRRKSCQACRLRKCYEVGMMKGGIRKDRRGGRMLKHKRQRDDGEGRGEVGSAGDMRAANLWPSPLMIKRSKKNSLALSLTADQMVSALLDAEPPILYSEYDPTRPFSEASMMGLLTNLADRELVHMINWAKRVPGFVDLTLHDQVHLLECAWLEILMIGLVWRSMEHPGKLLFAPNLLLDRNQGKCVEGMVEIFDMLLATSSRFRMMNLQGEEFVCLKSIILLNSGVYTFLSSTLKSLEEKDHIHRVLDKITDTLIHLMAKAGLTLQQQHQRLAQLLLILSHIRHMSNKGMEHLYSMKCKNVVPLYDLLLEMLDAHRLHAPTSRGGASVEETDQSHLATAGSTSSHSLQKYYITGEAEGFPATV
- run description: Antagonist activity at human ER ligand binding domain expressed in african green monkey COS7 cells in presence of 17-beta-estradiol by Gal4 hybrid assay
value type: pIC50
Answers are plain numbers, as −log10 of the molar value.

Fetch value of pIC50 on Estrogen receptor (Homo sapiens) for COC[C@]1(OC)CC[C@H]2[C@@H]3CCC4=CC(=O)CCC4=C3[C@@H](c3ccc(/C=N/O)cc3)C[C@@]21C .
5.72

###

- run description: Volume of distribution at steady state in Sprague-Dawley rat at 0.5 mg/kg, iv
- Format: ADME, organism-based
- Set-up: dose 0.5 mg/kg, route intravenous
- measurement context: in vivo, read-out: Vdss
Provide the reported Vd of each item.
One number for each entry, in L/kg.

smiles representation: Cn1c(C#N)ccc1-c1cc(F)c2c(c1)C(C)(C)C(=O)N2
unit of measure: L/kg
Vd: 2.9

Now consider a different molecule.
Quote Vd reported for Cn1c(C#N)ccc1-c1ccc2c(c1)C(C)(C)C(=O)N2 please.
2.2

###

So I've got a bunch of compounds here, and I need their IC50 values.
- target: Progesterone receptor (Homo sapiens, UniProt P06401)
- Sequence (P06401 whole entry): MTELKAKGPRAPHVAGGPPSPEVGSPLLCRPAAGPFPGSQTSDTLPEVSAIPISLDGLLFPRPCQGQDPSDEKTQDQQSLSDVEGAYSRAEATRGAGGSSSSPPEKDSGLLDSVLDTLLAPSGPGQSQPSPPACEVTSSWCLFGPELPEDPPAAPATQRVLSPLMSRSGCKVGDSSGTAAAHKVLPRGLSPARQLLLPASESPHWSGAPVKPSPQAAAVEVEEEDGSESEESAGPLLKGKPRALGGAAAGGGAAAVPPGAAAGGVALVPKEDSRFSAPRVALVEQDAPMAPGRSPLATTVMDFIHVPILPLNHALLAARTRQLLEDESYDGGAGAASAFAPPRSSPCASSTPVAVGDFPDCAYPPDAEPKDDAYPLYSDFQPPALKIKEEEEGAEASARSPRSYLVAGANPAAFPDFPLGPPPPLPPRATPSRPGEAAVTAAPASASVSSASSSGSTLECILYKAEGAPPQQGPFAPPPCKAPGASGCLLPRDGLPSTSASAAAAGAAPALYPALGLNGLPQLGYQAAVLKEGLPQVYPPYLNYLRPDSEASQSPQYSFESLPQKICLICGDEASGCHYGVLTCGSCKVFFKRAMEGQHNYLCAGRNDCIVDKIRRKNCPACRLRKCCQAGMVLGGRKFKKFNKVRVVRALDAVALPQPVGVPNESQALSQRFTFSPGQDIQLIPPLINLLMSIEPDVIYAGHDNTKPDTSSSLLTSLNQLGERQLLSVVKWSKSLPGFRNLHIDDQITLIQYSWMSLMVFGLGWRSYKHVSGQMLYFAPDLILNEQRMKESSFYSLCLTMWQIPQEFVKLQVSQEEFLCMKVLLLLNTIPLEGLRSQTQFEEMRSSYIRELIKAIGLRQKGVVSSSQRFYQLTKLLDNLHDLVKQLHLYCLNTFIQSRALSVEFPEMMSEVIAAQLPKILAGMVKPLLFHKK
- run description: Antagonist activity at human PR expressed in human T47D cells assessed as inhibition of progesterone induced alkaline phosphatase
- Format: functional, cell-based
Answers are plain numbers, in nM.

Examples from the recorded data:
smiles representation: Cn1c(C#N)ccc1-c1ccc2c(c1F)C(C)(C)C(=O)N2
unit of measure: nM
IC50: 5.9
//
smiles representation: CCN1C(=O)C(C)(C)c2cc(-c3ccc(C#N)n3C)cc(F)c21
unit of measure: nM
IC50: 29
//
smiles representation: Cn1c(C#N)ccc1-c1cc(F)c2c(c1)C(C)(C)C(=O)N2
unit of measure: nM
IC50: 5

Record IC50 for all entries; do not skip any.
1. CCCN1C(=O)C(C)(C)c2cc(-c3ccc(C#N)n3C)cc(F)c21
2. N#Cc1ccc(-c2ccc3c(c2)CC(=O)N3)[nH]1

1. 27
2. 300

###

- run description: Volume of distribution at steady state in Sprague-Dawley rat at 1 mg/kg, iv
- Format: ADME, organism-based
- Set-up: dose 1 mg/kg, route intravenous
- measurement context: in vivo, read-out: Vdss
value type: Vd (L/kg)
Numbers only, in L/kg.

Look up Vd of Cn1c(C#N)ccc1-c1cc(F)c2c(c1)C(C)(C)C(=O)N2 and report it.
2.4

###

- run description: Half life in Sprague-Dawley rat at 1 mg/kg, iv
- Format: ADME, organism-based
- Parameters: dose 1 mg/kg, route intravenous
- measurement context: in vivo
value type: half-life (h)
Give bare numbers, in h.

Tell me measured half-life for Cn1c(C#N)ccc1-c1cc(F)c2c(c1)C(C)(C)C(=O)N2 please.
9.4

###

I'd be grateful if you could share measured pEC50 for these entries.
- target: Progesterone receptor (Homo sapiens, UniProt P06401)
- Sequence (P06401 whole entry): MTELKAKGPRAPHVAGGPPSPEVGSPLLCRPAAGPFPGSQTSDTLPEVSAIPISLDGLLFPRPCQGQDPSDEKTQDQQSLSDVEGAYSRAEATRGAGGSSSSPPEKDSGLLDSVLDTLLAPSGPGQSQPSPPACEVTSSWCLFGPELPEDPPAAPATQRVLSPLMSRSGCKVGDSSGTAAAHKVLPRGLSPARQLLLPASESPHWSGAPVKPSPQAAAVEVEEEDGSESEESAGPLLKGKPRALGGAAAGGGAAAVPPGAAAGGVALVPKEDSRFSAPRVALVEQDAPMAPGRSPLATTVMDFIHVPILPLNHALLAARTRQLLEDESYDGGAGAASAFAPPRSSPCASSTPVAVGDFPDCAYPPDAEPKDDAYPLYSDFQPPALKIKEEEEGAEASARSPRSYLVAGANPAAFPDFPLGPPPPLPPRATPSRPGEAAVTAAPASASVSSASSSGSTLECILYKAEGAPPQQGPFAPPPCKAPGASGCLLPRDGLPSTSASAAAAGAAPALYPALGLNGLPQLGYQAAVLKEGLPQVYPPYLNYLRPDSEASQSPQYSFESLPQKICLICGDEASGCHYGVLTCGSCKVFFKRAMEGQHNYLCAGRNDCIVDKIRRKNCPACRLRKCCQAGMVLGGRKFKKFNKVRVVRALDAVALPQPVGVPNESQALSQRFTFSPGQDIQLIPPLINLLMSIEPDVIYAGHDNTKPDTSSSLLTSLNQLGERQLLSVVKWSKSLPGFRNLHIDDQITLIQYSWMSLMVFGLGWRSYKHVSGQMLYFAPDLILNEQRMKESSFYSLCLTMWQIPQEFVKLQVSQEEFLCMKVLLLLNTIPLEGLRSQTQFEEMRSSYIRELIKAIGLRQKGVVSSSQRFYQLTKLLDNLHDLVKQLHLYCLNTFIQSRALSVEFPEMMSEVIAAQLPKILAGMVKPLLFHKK
- run description: Agonist activity at human PR expressed in human T47D cells assessed as stimulation of alkaline phosphatase
Give bare numbers, as −log10 of the molar value.

smiles representation: Cn1c(C#N)ccc1-c1cc(F)c2c(c1)C1(CCCCC1)C(=O)N2
endpoint value: 8.89

Quick batch: pEC50 for everything below.
1. Cn1c(C#N)ccc1-c1ccc2c(c1)C1(CCCC1)C(=O)N2
2. Cn1c(C#N)ccc1-c1ccc2c(c1)C(C)(C)OC(=S)N2
3. Cn1c(C#N)ccc1-c1ccc2c(c1)C1(CCCCC1)C(=O)N2
4. Cn1c(C#N)ccc1-c1cc(F)c2c(c1)C1(CCCC1)C(=O)N2

1. 6.52
2. 9.82
3. 8.64
4. 5.52
